system: SK-MEL-28; test: NCI tumour cell line growth inhibition, 48 h
Active and inactive are the calls of the source. No stated cut-off is given here; in the data, active = GI50 up to about 1.1 µM and inactive = higher.
Give one outcome, nothing more. List: t for active, f for inactive

molecule	labelClass
O=C(Nc1c(C(=O)NC2CCCCC2)[nH]c(=O)[nH]c1=O)c1ccc(Cl)cc1	f
COC(=O)C(C/C=C(\C)c1ccc(Cl)cc1)C(C)=O (centres undefined)	f
C[C@H](CCC(=O)O)[C@H]1CC[C@H]2[C@@H]3[C@@H](O)C[C@@H]4C[C@H](O)CC[C@]4(C)[C@H]3CC[C@]12C	f
CC(=O)CC(=O)c1cc2c(=O)oc(C)cc2oc1=O	f
C=CC/N=C1\NC(=O)C(CC(=O)Nc2ccc(C)cc2)S1 (centres undefined)	f

Q: So what was the verdict on `CN(C)P(=O)(/C(N)=N/Nc1ccc([N+](=O)[O-])cc1)N(C)C` in this test?
A: f

Q: So what was the verdict on `Nc1ncc(Sc2ccccc2C(=O)O)s1` in this test?
A: f

Q: So what was the verdict on `O=C(NCCCl)Nc1ccccc1` in this test?
A: f

Q: So what was the verdict on `CC(=O)Nc1ccc(NC(=O)CC(=O)Nc2ccc(NC(C)=O)cc2)cc1` in this test?
A: f

Q: So what was the verdict on O=C1c2cc3c(cc2CC12Cc1ccc4c(c1C2=O)CCCC4)CCCC3 (centres undefined) in this test?
A: f

Q: So what was the verdict on `C=CCCCN1CCCCC1=S` in this test?
A: f

Q: So what was the verdict on NCC(NC(=O)OCc1ccccc1)C(=O)O (centres undefined) in this test?
A: f
